target of assay: T1, IL-8 (CXCL8) (UniProt P10145 28-99, limits assumed)
T1 construct: also called IL-8(72aa); IL-8(77aa)
T1 sequence (looked up): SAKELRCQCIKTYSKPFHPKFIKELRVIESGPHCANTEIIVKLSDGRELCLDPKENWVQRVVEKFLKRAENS
test name: SPR, ProteOn XPR36, GLM chip
readout name: Kd (µM)
State just the number; it will be interpreted in µM.

Ask: What value of Kd has been recorded for this entry: VTTFFDYDYGAPC (Peptide used in SPR; also called CB6R2) [CBP6 (VTTFFDYDYGAPC, from the N-terminal of CCR2)]
Result: 1060

Where these numbers come from: patent US20100227824A1
